B1: Probable E3 ubiquitin-protein ligase MID2, residues 191 to 235; numbered along this chain, Q9UJV3 (parent)
chain: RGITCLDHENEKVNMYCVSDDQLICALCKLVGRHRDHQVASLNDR

- Variants of: B1
- test details: abundance fitness (aPCA) (normalised: wild type 0, dead -1); higher = more abundant; growth selection in yeast, the domain comes from the species named
- condition parameters: Homo sapiens
# abundance fitness binned as low-valued (below -0.5), mid-valued (-0.5 to below -0.1), high-valued (-0.1 or more)

Study these solved cases before continuing.
mutation: C17W
classification: low-valued
--
mutation: V31L
classification: mid-valued
--
mutation: H8C
classification: mid-valued
--
mutation: K29W
classification: high-valued
--
mutation: H34T
classification: mid-valued

Input: // bin(item) where item = C5L
Output: low-valued

Input: Can you handle D36E next?
Output: high-valued

Input: Can you handle K29E next?
Output: high-valued

Input: Can you handle L42Y next?
Output: mid-valued

Input: Can you handle H37Y next?
Output: low-valued
